- Procedure details: qHTS Assay for NPC1 Promoter Activators; note: nearly all actives have a fitted effect of over 60% in size;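 for activation: reporter is driven by a mutant NPC1 promoter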
- Cond: Huh7 NPC1 promoter luciferase reporter, 24 h; series mostly up to 9.22 µM
Screen size: about 320,000 compounds; about 7,600 (2.4%) were called active. Not shown: some 3% with an inconclusive outcome. Calls come from the whole dose curve; as a rule, active = well fitted activation curve with a large enough effect; inconclusive = small, poorly fitted or top-dose-only effect; inactive = no such curve, though single readings can be large or run the other way. The sample as a whole holds a higher share of actives than the screen did.
Pick one: T for active, F for inactive

Look over these answered cases.
{"Molecule": "Cc1ccc(-c2noc(CSc3nnc(-c4cccs4)n3C)n2)cc1", "Category label": "F"}
{"Molecule": "Cc1ccccc1Nc1nc(-c2cccnc2)cs1", "Category label": "T"}
{"Molecule": "COc1nc(-c2ccc(Cl)cc2)ccc1-c1noc(-c2cccs2)n1", "Category label": "F"}
{"Molecule": "Cc1ccc(C)c(NC(=S)NNC(=O)c2csc(C)c2)c1", "Category label": "F"}
{"Molecule": "COc1ccccc1C(=O)Nc1ccc(OCC(=O)N2CCCCC2)cc1", "Category label": "F"}

Assay result, entry `Cc1ccccc1NC(=S)NNC(=O)c1cccc(Br)c1` — outcome? F
